test: Volume of distribution in CD1 mouse at 10 mg/kg, iv bid; format: ADME, organism-based; design: dose 10 mg/kg, route intravenous; settings: in vivo
Parameter Measured: Vd
Give the number first and the unit second.

Task: Name the reported Vd value associated with the compound O=C(Nc1n[nH]c2cc(C(=O)N[C@H](CN3CCCC3)c3ccccc3)sc12)c1ccc(N2CCOCC2)cc1
Result: 16 L/kg
